- Procedure summary: Cytotoxicity against human HL cells assessed as cell viability at 50 uM after 72 hrs by resazurin dye based fluorescence assay relative to control
- Test parameters: HL cells, read-out: Activity
Counter-ions that a name gives are not always drawn.
Note to self: use Y only for viability at 72 h, 50 µM readings below 30%; a reading exactly at 30% still gets N.

Compound	Assigned category
COc1c(O)c2c(=O)cc(OC)c3c4c(OC)cc(=O)c5c(O)c(OC)c6c(c(c1CC(C)(O)C6C(C)=O)c23)c54 (stereo not drawn)	Y
COc1cc2c(cc1OC)[C@@H]1C(=O)c3ccc4c(c3O[C@@H]1CO2)C=CC(C)(C)O4 [DEGUELIN]	Y
Cn1c(-c2ccc3c(c2)OCO3)cc(=O)c2ccccc21 [GRAVEOLINE]	N
O=c1c(O[C@@H]2O[C@H](CO)[C@@H](O)[C@H](O)[C@H]2O)c(-c2ccc(O)c(O)c2)oc2cc(O)cc(O)c12 [ISOQUERCETIN]	N
COc1cc(/C=C/c2ccccc2)oc(=O)c1 [DESMETHOXYYANGONIN]	N
COc1ccc2c(c1)[nH]c1c(C)nccc12 [HARMINE HYDROCHLORIDE]	N
CC(C)=CCC[C@](C)(O)[C@H]1CC[C@]2(C)[C@@H]1CC[C@@H]1[C@@]3(C)CCC(=O)C(C)(C)[C@@H]3CC[C@]12C [DIPTEROCARPOL]	N

Pending compound:
Inquiry: Does the reported viability at 72 h, 50 µM of COc1c(C)c2c(c(O)c1C/C=C(\C)CCC(=O)O)C(=O)OC2 [MYCOPHENOLIC ACID] stay below 30%?
Reply text: N
